Source listed as the supplement of paper PMC5998384.

Item-by-item account of solubility change mitosis (log2)
# Tested on: HeLa Kyoto
# Assay Explanation: solubility change mitosis vs G1/S (difference of NP-40 vs SDS log2 ratios) (log2 ratio difference); higher = more soluble in mitosis
// keep it numeric: no unit symbol after the value

Below, 2 sequences whose answers are already recorded.
Query Sequence: MFSVLSYGRLVARAVLGGLSQTDPRAGGGGGGDYGLVTAGCGFGKDFRKGLLKKGACYGDDACFVARHRSADVLGVADGVGGWRDYGVDPSQFSGTLMRTCERLVKEGRFVPSNPIGILTTSYCELLQNKVPLLGSSTACIVVLDRTSHRLHTANLGDSGFLVVRGGEVVHRSDEQQHYFNTPFQLSIAPPEAEGVVLSDSPDAADSTSFDVQLGDIILTATDGLFDNMPDYMILQELKKLKNSNYESIQQTARSIAEQAHELAYDPNYMSPFAQFACDNGLNVRGGKPDDITVLLSIVAEYTD [PPTC7]
Readout Number: -0.0876
--
Query Sequence: MASSSGNDDDLTIPRAAINKMIKETLPNVRVANDARELVVNCCTEFIHLISSEANEICNKSEKKTISPEHVIQALESLGFGSYISEVKEVLQECKTVALKRRKASSRLENLGIPEEELLRQQQELFAKARQQQAELAQQEWLQMQQAAQQAQLAAASASASNQAGSSQDEEDDDDI [DR1]
Readout Number: 0.91

Next up:
Task: Entry MLSESSSFLKGVMLGSIFCALITMLGHIRIGHGNRMHHHEHHHLQAPNKEDILKISEDERMELSKSFRVYCIILVKPKDVSLWAAVKETWTKHCDKAEFFSSENVKVFESINMDTNDMWLMMRKAYKYAFDKYRDQYNWFFLARPTTFAIIENLKYFLLKKDPSQPFYLGHTIKSGDLEYVGMEGGIVLSVESMKRLNSLLNIPEKCPEQGGMIWKISEDKQLAVCLKYAGVFAENAEDADGKDVFNTKSVGLSIKEAMTYHPNQVVEGCCSDMAVTFNGLTPNQMHVMMYGVYRLRAFGHIFNDALVFLPPNGSDND [C1GALT1C1] : reported solubility change mitosis (log2) = ?
Output: -0.0947

====

# System: HeLa Kyoto
# Assay Explanation: solubility in G1/S (NP-40 vs SDS abundance) (log2 ratio); higher = more soluble
# Condition Context: cell cycle stage: G1/S
Item-by-item account of solubility in G1/S (log2)

Task: Entry MAAPGSCALWSYCGRGWSRAMRGCQLLGLRSSWPGDLLSARLLSQEKRAAETHFGFETVSEEEKGGKVYQVFESVAKKYDVMNDMMSLGIHRVWKDLLLWKMHPLPGTQLLDVAGGTGDIAFRFLNYVQSQHQRKQKRQLRAQQNLSWEEIAKEYQNEEDSLGGSRVVVCDINKEMLKVGKQKALAQGYRAGLAWVLGDAEELPFDDDKFDIYTIAFGIRNVTHIDQALQEAHRVLKPGGRFLCLEFSQVNNPLISRLYDLYSFQVIPVLGEVIAGDWKSYQYLVESIRRFPSQEEFKDMIEDAGFHKVTYESLTSGIVAIHSGFKL [COQ5] : reported solubility in G1/S (log2) = ?
Output: -0.0892

Task: Entry MSGRSVRAETRSRAKDDIKKVMAAIEKVRKWEKKWVTVGDTSLRIFKWVPVTDSKEKEKSKSNSSAAREPNGFPSDASANSSLLLEFQDENSNQSSVSDVYQLKVDSSTNSSPSPQQSESLSPAHTSDFRTDDSQPPTLGQEILEEPSLPSSEVADEPPTLTKEEPVPLETQVVEEEEDSGAPPLKRFCVDQPTVPQTASES [BCL7B] : reported solubility in G1/S (log2) = ?
Output: 0.295

Task: Entry MDMKRRIHLELRNRTPAAVRELVLDNCKSNDGKIEGLTAEFVNLEFLSLINVGLISVSNLPKLPKLKKLELSENRIFGGLDMLAEKLPNLTHLNLSGNKLKDISTLEPLKKLECLKSLDLFNCEVTNLNDYRESVFKLLPQLTYLDGYDREDQEAPDSDAEVDGVDEEEEDEEGEDEEDEDDEDGEEEEFDEEDDEDEDVEGDEDDDEVSEEEEEFGLDEEDEDEDEDEEEEEGGKGEKRKRETDDEGEDD [ANP32B] : reported solubility in G1/S (log2) = ?
Output: -0.0836

====

# System: HeLa Kyoto
# Assay Explanation: melting temperature (median over replicates), in situ; higher = more thermally stable
# Condition Context: cell cycle stage: mitosis
Assay Readout: melting temperature
Answer format: value, then unit.

Below, 5 substances whose answers are already recorded.
Substance: MSCINLPTVLPGSPSKTRGQIQVILGPMFSGKSTELMRRVRRFQIAQYKCLVIKYAKDTRYSSSFCTHDRNTMEALPACLLRDVAQEALGVAVIGIDEGQFFPDIVEFCEAMANAGKTVIVAALDGTFQRKPFGAILNLVPLAESVVKLTAVCMECFREAAYTKRLGTEKEVEVIGGADKYHSVCRLCYFKKASGQPAGPDNKENCPVPGKPGEAVAARKLFAPQQILQCSPAN [TK1]
melting temperature: 57.3 °C
--
Substance: ARFGAP2
melting temperature: 49.4 °C
--
Substance: MSLCSPTHSAEMSLFLQGPEEMLPLSSEGSEMGSEKEQSPEPHLPEEGEGGKPWRVDDSEGSWIPPGEKEHGQESLSDELQETHPKKPWQKVTVRARELGDPIAHPRHEADEKPFICAQCGKTFNNTSNLRTHQRIHTGEKPYKCSECGKSFSRSSNRIRHERIHLEEKHYKCPKCQESFRRRSDLTTHQQDHLGKRPYRCDICGKSFSQSATLAVHHRTHLEPAPYICCECGKSFSNSSSFGVHHRTHTGERPYECTECGRTFSDISNFGAHQRTHRGEKPYRCTVCGKHFSRSSNLIRHQKTHLGEQAGKDSS [ZNF691]
melting temperature: 53.1 °C
--
Substance: MATSRYEPVAEIGVGAYGTVYKARDPHSGHFVALKSVRVPNGGGGGGGLPISTVREVALLRRLEAFEHPNVVRLMDVCATSRTDREIKVTLVFEHVDQDLRTYLDKAPPPGLPAETIKDLMRQFLRGLDFLHANCIVHRDLKPENILVTSGGTVKLADFGLARIYSYQMALTPVVVTLWYRAPEVLLQSTYATPVDMWSVGCIFAEMFRRKPLFCGNSEADQLGKIFDLIGLPPEDDWPRDVSLPRGAFPPRGPRPVQSVVPEMEESGAQLLLEMLTFNPHKRISAFRALQHSYLHKDEGNPE [CDK4]
melting temperature: 52.4 °C
--
Substance: MNPNCARCGKIVYPTEKVNCLDKFWHKACFHCETCKMTLNMKNYKGYEKKPYCNAHYPKQSFTMVADTPENLRLKQQSELQSQVRYKEEFEKNKGKGFSVVADTPELQRIKKTQDQISNIKYHEEFEKSRMGPSGGEGMEPERRDSQDGSSYRRPLEQQQPHHIPTSAPVYQQPQQQPVAQSYGGYKEPAAPVSIQRSAPGGGGKRYRAVYDYSAADEDEVSFQDGDTIVNVQQIDDGWMYGTVERTGDTGMLPANYVEAI [LASP1]
melting temperature: 60.5 °C

Next up:
Task: // map MERASLIQKAKLAEQAERYEDMAAFMKGAVEKGEELSCEERNLLSVAYKNVVGGQRAAWRVLSSIEQKSNEEGSEEKGPEVREYREKVETELQGVCDTVLGLLDSHLIKEAGDAESRVFYLKMKGDYYRYLAEVATGDDKKRIIDSARSAYQEAMDISKKEMPPTNPIRLGLALNFSVFHYEIANSPEEAISLAKTTFDEAMADLHTLSEDSYKDSTLIMQLLRDNLTLWTADNAGEEGGEAPQEPQS [SFN] to recorded melting temperature (system: HeLa Kyoto)
Output: 53.1 °C

====

Item-by-item account of solubility in G1/S (log2)
# System: HeLa Kyoto
# Assay Explanation: solubility in G1/S (NP-40 vs SDS abundance) (log2 ratio); higher = more soluble
# Condition Context: cell cycle stage: G1/S
// keep it numeric: no unit symbol after the value

Task: Entry MVHAFLIHTLRAPNTEDTGLCRVLYSCVFGAEKSPDDPRPHGAERDRLLRKEQILAVARQVESMCRLQQQASGRPPMDLQPQSSDEQVPLHEAPRGAFRLAAENPFQEPRTVVWLGVLSLGFALVLDAHENLLLAEGTLRLLTRLLLDHLRLLAPSTSLLLRADRIEGILTRFLPHGQLLFLNDQFVQGLEKEFSAAWPR [AP5S1] : reported solubility in G1/S (log2) = ?
Output: -0.269

Task: Entry MAGARRLELGEALALGSGWRHACHALLYAPDPGMLFGRIPLRYAILMQMRFDGRLGFPGGFVDTQDRSLEDGLNRELREELGEAAAAFRVERTDYRSSHVGSGPRVVAHFYAKRLTLEELLAVEAGATRAKDHGLEVLGLVRVPLYTLRDGVGGLPTFLENSFIGSAREQLLEALQDLGLLQSGSISGLKIPAHH [NUDT16] : reported solubility in G1/S (log2) = ?
Output: 0.0531

Task: Entry MAQAHRTPQPRAAPSQPRVFKLVLLGSGSVGKSSLALRYVKNDFKSILPTVGCAFFTKVVDVGATSLKLEIWDTAGQEKYHSVCHLYFRGANAALLVYDITRKDSFLKAQQWLKDLEEELHPGEVLVMLVGNKTDLSQEREVTFQEGKEFADSQKLLFMETSAKLNHQVSEVFNTVAQELLQRSDEEGQALRGDAAVALNKGPARQAKCCAH [RAB17] : reported solubility in G1/S (log2) = ?
Output: 0.138
